- System: RARb homodimer (NR concentration 270 nM)
- assay: PBM binding z-score (relative to random genomic background probes); higher = stronger binding; sequences stand for … in GC…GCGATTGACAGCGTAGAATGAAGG
readout.label: PBM binding z-score
// no unit string in output, number only

Task: Checklist item: PBM binding z-score tested on RARb homodimer (NR concentration 270 nM), entry "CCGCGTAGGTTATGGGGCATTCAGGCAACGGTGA" , value?
Result: 1.05

Task: What would you report for "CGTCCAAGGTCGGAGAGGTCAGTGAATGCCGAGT" ?
Result: 4.01

Task: Follow-up item: "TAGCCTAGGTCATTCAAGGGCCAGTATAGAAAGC"
Result: 3.38

Task: Now the sequence "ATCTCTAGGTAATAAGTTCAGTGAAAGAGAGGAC"
Result: 2.13

Task: Then what about the sequence "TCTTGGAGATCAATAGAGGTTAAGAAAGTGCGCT" ?
Result: 1.39

Task: Try this sequence next: "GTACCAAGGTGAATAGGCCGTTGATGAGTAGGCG"
Result: 0.865
